testTarget: β2 receptor (Homo sapiens)
Construct: endogenous in cells
Sequence (P07550 whole entry): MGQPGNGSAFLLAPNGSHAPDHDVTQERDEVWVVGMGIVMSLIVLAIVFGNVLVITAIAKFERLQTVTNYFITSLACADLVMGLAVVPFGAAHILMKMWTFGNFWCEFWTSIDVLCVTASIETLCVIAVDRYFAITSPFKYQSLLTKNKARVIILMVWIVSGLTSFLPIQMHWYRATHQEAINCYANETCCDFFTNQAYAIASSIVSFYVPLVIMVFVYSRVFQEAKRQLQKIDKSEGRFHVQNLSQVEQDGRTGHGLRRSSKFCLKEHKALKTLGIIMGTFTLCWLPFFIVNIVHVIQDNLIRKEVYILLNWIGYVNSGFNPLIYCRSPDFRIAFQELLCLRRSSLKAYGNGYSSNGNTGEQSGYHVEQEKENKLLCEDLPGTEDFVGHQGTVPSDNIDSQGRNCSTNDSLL
assayMethodText: Adrenergic β2 mediated cAMP production in H292 cells (AlphaScreen cAMP detection)
conditionLabel: cAMP, test compounds incubated 10 minutes, 300 μM rolipram
Counter-ions that a name gives are not always drawn.
Quick reference for pEC50 among some molecules
Schema: pEC50 number; meaning minus log10 of the concentration expressed in molar units.

Cl.O=c1[nH]c2c(O)ccc([C@@H](O)CNCCSCCOCCc3cccc4ccccc34)c2s1 [Example 4, hydrochloride] | 10.00
O=c1[nH]c2c(O)ccc([C@@H](O)CNCCCS(=O)(=O)CCOCCc3cccc4ccccc34)c2s1 [Example 2, trifluoroacetate] | 9.80

Missing value: pEC50, β2 receptor (Homo sapiens), entry CN(CCCSCCNC[C@H](O)c1ccc(O)c2[nH]c(=O)sc12)CCc1ccccc1 [Example 12, trifluoroacetate] . Fill in?
8.30

And for Cl.O=c1[nH]c2c(O)ccc([C@@H](O)CNCCCSCCCOCCc3ccc(Br)cc3)c2s1 [Example 5, hydrochloride] ?
10.20

###

testTarget: Adrenergic β2 (Homo sapiens, UniProt P07550)
Construct: endogenous in cells; host or cells: H292 cells
Sequence (P07550 whole entry): as above
assayMethodText: Alternative Adrenergic β2 Mediated cAMP Production in H292 cells (AlphaScreen cAMP detection)
Format: cell-based
conditionLabel: fraction relative to the maximum activity determined for formoterol, 60 minutes incubation
Structures can show the parent of a compound that is named as a salt.
measuredMetric: β2 Int Act
No unit in the answer, please; the number alone is enough.

Example entries and their recorded answers appear below.
O=c1[nH]c2c(O)ccc([C@@H](O)CNCCCSCCNCCc3cccc(Cl)c3)c2s1 [Example 33] | 1.1
CCc1ccc(CCNCCCSCCNC[C@H](O)c2ccc(O)c3[nH]c(=O)sc23)cc1 [Example 14] | 0.9
O=c1[nH]c2c(O)ccc([C@@H](O)CNCCSCCCNCCc3cccc(Cl)c3)c2s1 [Example 40, dihydrochloride] | 0.8
O=c1[nH]c2c(O)ccc([C@@H](O)CNCCSCCCNCCc3cccc(Cl)c3Cl)c2s1 [Example 38, dihydrochloride] | 0.9
O=c1[nH]c2c(O)ccc([C@@H](O)CNCCCOCCOCCc3ccccc3)c2s1 [Example 3, trifluoroacetate] | 0.9

Now consider the entry below.
Any idea what its β2 Int Act is? The compound is O=c1[nH]c2c(O)ccc([C@@H](O)CNCCCOCCOCCc3cccc4ccccc34)c2s1 [Example 7]
1.1

###

testTarget: recombinant human α1D receptor (Homo sapiens)
Construct: expressed in transfected cells; host or cells: HEK293
Sequence (P25100 whole entry): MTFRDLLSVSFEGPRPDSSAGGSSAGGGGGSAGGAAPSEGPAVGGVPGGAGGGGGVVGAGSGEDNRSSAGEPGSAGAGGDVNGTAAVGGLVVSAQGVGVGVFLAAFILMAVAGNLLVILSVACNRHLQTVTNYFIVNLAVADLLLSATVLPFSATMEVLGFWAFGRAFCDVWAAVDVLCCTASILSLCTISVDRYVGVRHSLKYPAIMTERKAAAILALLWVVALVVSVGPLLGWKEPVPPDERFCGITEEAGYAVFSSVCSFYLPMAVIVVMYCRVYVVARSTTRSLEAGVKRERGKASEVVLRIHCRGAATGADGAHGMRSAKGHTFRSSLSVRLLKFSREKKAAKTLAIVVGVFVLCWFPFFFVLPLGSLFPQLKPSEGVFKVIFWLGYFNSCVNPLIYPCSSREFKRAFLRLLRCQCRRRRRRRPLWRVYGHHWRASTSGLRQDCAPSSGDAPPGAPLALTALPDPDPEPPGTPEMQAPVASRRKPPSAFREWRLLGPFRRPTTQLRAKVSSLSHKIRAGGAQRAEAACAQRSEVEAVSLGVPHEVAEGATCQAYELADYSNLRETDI
assayMethodText: Adrenergic α1D selectivity assay, inhibition of [3H]-prazosin binding
conditionLabel: HEK293 membranes, [3H]-prazosin 0.3 nM; read-out: α1 bind pIC50 (converted)
Counter-ions that a name gives are not always drawn.
measuredMetric: IC50 (nM)
The answer is to be given in nM; state only the numeric part.

CCOc1ccc(CCNCCCSCCNC[C@H](O)c2ccc(O)c3[nH]c(=O)sc23)cc1 | 1580
O=c1[nH]c2c(O)ccc([C@@H](O)CNCCCOCCOCCc3cccc4ccccc34)c2s1 | 631
Cl.O=c1[nH]c2c(O)ccc([C@@H](O)CNCCSCCOCCc3cccc4ccccc34)c2s1 [Example 4, hydrochloride] | 200
N[C@@H](COCCCSCCNC[C@H](O)c1ccc(O)c2[nH]c(=O)sc12)c1ccccc1 | 158
C[C@H](CNCCSCCCNC[C@H](O)c1ccc(O)c2[nH]c(=O)sc12)c1ccccc1 | 100
C[C@H](CNCCCSCCNC[C@H](O)c1ccc(O)c2[nH]c(=O)sc12)c1ccccc1 [Example 48, dihydrochloride] | 1580
C[C@@H](CNCCSCCCNC[C@H](O)c1ccc(O)c2[nH]c(=O)sc12)c1ccccc1 | 126
O=c1[nH]c2c(O)ccc([C@@H](O)CNCCSCCCNCCc3cccc(Cl)c3Cl)c2s1 [Example 38, dihydrochloride] | 158
C[C@@H](CNCCCSCCNC[C@H](O)c1ccc(O)c2[nH]c(=O)sc12)c1ccccc1 [Example 46, dihydrochloride] | 251

Now consider the entry below.
Any idea what its IC50 is? The compound is O=c1[nH]c2c(O)ccc([C@@H](O)CNCCCSCCNCCc3ccccc3Cl)c2s1
12.6
